Target: human sGC α subunit and β subunit (Homo sapiens, UniProt Q02153)
Construct: expressed in transfected cells
Sequence (Q02153 whole entry): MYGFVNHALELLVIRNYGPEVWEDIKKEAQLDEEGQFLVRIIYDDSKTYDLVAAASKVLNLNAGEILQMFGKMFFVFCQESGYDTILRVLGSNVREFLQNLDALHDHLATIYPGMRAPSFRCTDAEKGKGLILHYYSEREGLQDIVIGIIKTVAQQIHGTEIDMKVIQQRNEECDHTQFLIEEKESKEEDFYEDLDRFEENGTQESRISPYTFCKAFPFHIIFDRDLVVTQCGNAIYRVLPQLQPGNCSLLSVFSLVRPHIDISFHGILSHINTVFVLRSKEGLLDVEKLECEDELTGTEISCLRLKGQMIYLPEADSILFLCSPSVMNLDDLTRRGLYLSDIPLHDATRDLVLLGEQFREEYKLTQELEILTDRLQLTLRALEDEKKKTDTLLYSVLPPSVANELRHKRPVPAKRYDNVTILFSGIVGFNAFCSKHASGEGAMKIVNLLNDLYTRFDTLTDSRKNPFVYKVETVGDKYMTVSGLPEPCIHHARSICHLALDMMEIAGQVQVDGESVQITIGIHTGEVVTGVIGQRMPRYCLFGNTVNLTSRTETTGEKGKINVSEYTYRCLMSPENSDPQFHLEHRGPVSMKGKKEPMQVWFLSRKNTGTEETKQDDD
Sequence (Q02108 whole entry partner): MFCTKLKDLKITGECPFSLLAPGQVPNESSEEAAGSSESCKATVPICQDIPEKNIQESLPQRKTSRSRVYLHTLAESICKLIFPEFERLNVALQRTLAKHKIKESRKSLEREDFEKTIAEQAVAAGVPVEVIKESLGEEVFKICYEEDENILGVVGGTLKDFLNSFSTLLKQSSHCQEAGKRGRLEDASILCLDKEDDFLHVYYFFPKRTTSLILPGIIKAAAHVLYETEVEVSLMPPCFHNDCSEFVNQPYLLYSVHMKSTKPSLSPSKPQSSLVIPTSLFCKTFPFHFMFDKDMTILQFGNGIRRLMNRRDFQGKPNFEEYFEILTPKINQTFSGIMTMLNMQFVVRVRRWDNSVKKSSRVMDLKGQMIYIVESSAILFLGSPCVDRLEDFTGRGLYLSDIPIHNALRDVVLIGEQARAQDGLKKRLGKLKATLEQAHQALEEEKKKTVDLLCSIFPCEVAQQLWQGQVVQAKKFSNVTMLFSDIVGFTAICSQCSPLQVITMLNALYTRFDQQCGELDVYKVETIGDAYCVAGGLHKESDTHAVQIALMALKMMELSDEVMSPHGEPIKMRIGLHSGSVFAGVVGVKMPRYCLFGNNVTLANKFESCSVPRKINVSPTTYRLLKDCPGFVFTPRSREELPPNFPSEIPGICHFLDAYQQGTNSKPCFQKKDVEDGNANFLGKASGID
Assay: Maximum effect of sGC activating function (Ca2+ fluorescence in CHO-K1 cells expressing human sGC and mouse CNGA2)
Assay type: cell-based
Details: increase ratio of sGC activity vs control solution at 10 μmol/L test compound, ODQ not contained, read-out: Emax (%) ODQ− (Heme-dependent)
Endpoint label: Emax at 10 µM (%)
Give bare numbers, in %.

Below, each entry is followed by its recorded Emax at 10 µM result.
O=C(O)CCCCN(CCc1ccccc1OCc1ccc(CSc2ccccc2)cc1)C1CCCc2cc(C(=O)O)ccc21 (stereo not shown): 115
CC(C)(C)c1cccc(COc2ccccc2CCN(CCCCC(=O)O)C2CCCc3cc(C(=O)O)ccc32)c1 (stereo not shown): 109
O=C(O)CCCCN(CCc1ccccc1OCc1ccc(C2CC2)cc1)C1CCCc2cc(C(=O)O)ccc21 (stereo not shown): 86.7

Please look at the following compound next.
Query: Which Emax at 10 µM is listed for O=C(O)CCCCN(CCc1ccccc1OCc1ccc(CCc2ccccc2)cc1)C1CCc2cc(C(=O)O)ccc21 (stereo not shown) ?
Result: 85.6

----------
Molecular target: human sGC α subunit and β subunit (Homo sapiens)
Construct: expressed in transfected cells
Assay: Maximum effect of sGC activating function (Ca2+ fluorescence in CHO-K1 cells expressing human sGC and mouse CNGA2)
Format: cell-based
Conditions: increase ratio of sGC activity vs control solution at 10 μmol/L test compound, ODQ not contained, read-out: Emax (%) ODQ− (Heme-dependent)
Endpoint label: Emax at 10 µM (%)
Give bare numbers, in %.

Parameter requested: Emax at 10 µM. Apply to each item below.
1. CC(C)c1ccc(COc2ccccc2CCN(CCCCC(=O)O)C2CCCc3cc(C(=O)O)ccc32)cc1 (stereo not shown)
2. O=C(O)CCCCN(CCc1ccccc1OCc1ccc(OCc2ccccc2)cc1)C1CCCc2cc(C(=O)O)ccc21 (stereo not shown)
3. O=C(O)CCCCN(CCc1ccccc1OCc1ccc(SCc2ccccc2)cc1)C1CCCc2cc(C(=O)O)ccc21 (stereo not shown)
4. O=C(O)CCCCN(CCc1ccccc1OC[C@H]1CC[C@H](CCc2ccccc2)CC1)C1CCCc2cc(C(=O)O)ccc21 (stereo partly shown)
5. O=C(O)CCCCN(CCc1ccccc1OCc1ccc(COc2ccccc2)cc1)C1CCCc2cc(C(=O)O)ccc21 (stereo not shown)

Result:
[90.3, 99.1, 101, 119, 116]

Parameter requested: Emax at 10 µM. Apply to each item below.
1. C[C@@H](Oc1ccccc1CCN(CCCCC(=O)O)C1CCCc2cc(C(=O)O)ccc21)c1ccc(C(C)(C)C)cc1 (stereo partly shown)
2. O=C(O)CCCCN(CCc1ccccc1OCc1ccc(CCc2ccccc2)cc1)C1CCCc2cc(C(=O)O)ccc21 (stereo not shown)

Result:
95.3
97.5

----------
Target: human sGC α subunit and β subunit (Homo sapiens)
Construct: expressed in transfected cells
Assay: Maximum effect of sGC activating function (Ca2+ fluorescence in CHO-K1 cells expressing human sGC and mouse CNGA2)
Format: cell-based
Conditions: increase ratio of sGC activity vs control solution at 10 μmol/L test compound, with 10 μmol/L ODQ, read-out: Emax (%) ODQ+ (Heme-independent)
Give measured Emax at 10 µM for each item. Keep answers brief.
Numbers only, in %.

Below, each entry is followed by its recorded Emax at 10 µM result.
O=C(O)CCCCN(CCc1ccccc1OC[C@H]1CC[C@H](CCc2ccccc2)CC1)C1CCCc2cc(C(=O)O)ccc21 (some centres unmarked) [Example 26]: 86.9
O=C(O)CCCCN(CCc1ccccc1OCc1ccc(CCc2ccccc2)cc1)C1CCc2cc(C(=O)O)ccc21 (centres unmarked) [Example 1]: 103
O=C(O)CCCCN(CCc1ccccc1OCc1ccc(C#CC2CCCCC2)cc1)C1CCCc2cc(C(=O)O)ccc21 (centres unmarked) [Example 22]: 100
O=C(O)CCCCN(CCc1ccccc1OCc1ccccc1Cl)C1CCCc2cc(C(=O)O)ccc21 (centres unmarked) [Example 13]: 87.2
O=C(O)CCCCN(CCc1ccccc1OCc1ccc(SCc2ccccc2)cc1)C1CCCc2cc(C(=O)O)ccc21 (centres unmarked) [Example 15]: 99.9
CC(C)c1ccc(COc2ccccc2CCN(CCCCC(=O)O)C2CCCc3cc(C(=O)O)ccc32)cc1 (centres unmarked) [Example 43]: 107

Parameter requested: Emax at 10 µM. Apply to each item below.
1. O=C(O)CCCCN(CCc1ccccc1OCc1ccc(C2CC2)cc1)C1CCCc2cc(C(=O)O)ccc21 (centres unmarked) [Example 42]
2. O=C(O)CCCCN(CCc1ccccc1OCc1ccc(CCc2ccccc2)cc1)C1CCSc2cc(C(=O)O)ccc21 (centres unmarked) [Example 5]
3. O=C(O)CCCCN(CCc1ccccc1OCc1ccc(CCc2ccccc2)cc1)C1CCCc2cc(C(=O)O)ccc21 (centres unmarked) [Example 2]
4. O=C(O)CCCCN(CCc1ccccc1OCc1ccc(CCc2ccccc2)cc1)C1CCOc2cc(C(=O)O)ccc21 (centres unmarked) [Example 4]
5. O=C(O)CCCCN(CCc1ccccc1OC[C@H]1CC[C@@H](CCc2ccccc2)CC1)C1CCCc2cc(C(=O)O)ccc21 (some centres unmarked) [Example 27]
6. O=C(O)CCCCN(CCc1ccccc1OCc1ccc(COc2ccccc2)cc1)C1CCCc2cc(C(=O)O)ccc21 (centres unmarked) [Example 16]
7. O=C(O)CCCCN(CCc1ccccc1OCc1ccc(CCC2CCCCC2)cc1)C1CCCc2cc(C(=O)O)ccc21 (centres unmarked) [Example 24]

Result:
122
86.9
109
109
96.6
97.5
114

Parameter requested: Emax at 10 µM. Apply to each item below.
1. O=C(O)CCCCN(CCc1ccccc1OCc1ccc(/C=C/C2CCCCC2)cc1)C1CCCc2cc(C(=O)O)ccc21 (centres unmarked) [Example 23]
2. O=C(O)CCCCN(CCc1ccccc1OCc1ccc(CCc2ccccc2)cc1)C1CCCCc2cc(C(=O)O)ccc21 (centres unmarked) [Example 3]
3. O=C(O)CCCCN(CCc1ccccc1OCc1ccc(CCc2ccccc2)cc1)C1CCCc2nc(C(=O)O)ccc21 (centres unmarked) [Example 6]
4. C[C@@H](Oc1ccccc1CCN(CCCCC(=O)O)C1CCCc2cc(C(=O)O)ccc21)c1ccc(C(C)(C)C)cc1 (some centres unmarked) [Example 45]
5. O=C(O)CCCCN(CCc1ccccc1OCc1ccc(CCc2ccccc2)cc1)C1COc2cc(C(=O)O)ccc21 (centres unmarked) [Example 7]
6. O=C(O)CCCCN(CCc1ccccc1OCc1ccc(CSc2ccccc2)cc1)C1CCCc2cc(C(=O)O)ccc21 (centres unmarked) [Example 17]
7. CC(C)(C)c1cccc(COc2ccccc2CCN(CCCCC(=O)O)C2CCCc3cc(C(=O)O)ccc32)c1 (centres unmarked) [Example 41]

Result:
1: 104; 2: 111; 3: 99.9; 4: 121; 5: 108; 6: 91.8; 7: 140

Parameter requested: Emax at 10 µM. Apply to each item below.
1. O=C(O)CCCCN(CCc1ccccc1OCc1cccc2c1CCCC2)C1CCCc2cc(C(=O)O)ccc21 (centres unmarked) [Example 29]
2. O=C(O)CCCCN(CCc1ccccc1OCc1ccc2c(c1)CCC2)C1CCCc2cc(C(=O)O)ccc21 (centres unmarked) [Example 46]
3. C#Cc1ccc(COc2ccccc2CCN(CCCCC(=O)O)C2CCCc3cc(C(=O)O)ccc32)cc1 (centres unmarked) [Example 19]

Result:
133
123
88

Parameter requested: Emax at 10 µM. Apply to each item below.
1. O=C(O)CCCCN(CCc1ccccc1OCc1ccc(CCc2ccccc2)cc1)Cc1ccc(C(=O)O)cc1 [Cinaciguat, reference compound]
2. O=C(O)CCCCN(CCc1ccccc1OCc1ccc(CCc2ccccc2)cc1)C1COCc2cc(C(=O)O)ccc21 (centres unmarked) [Example 8]
3. O=C(O)CCCCN(CCc1ccccc1OCc1ccc(OCc2ccccc2)cc1)C1CCCc2cc(C(=O)O)ccc21 (centres unmarked) [Example 14]

Result:
1: 86; 2: 102; 3: 101

Attribution: patent US9290440B2
